# targetEntity: human JAK3 (Homo sapiens)
# Construct: KL-2 EBV-transformed human lymphoblastoid B cells (native JAK3 kinase assays); endogenous in cells; host or cells: KL-2 EBV-transformed human lymphoblastoid B cell line
# method: JAK3 kinase inhibition (Table 1 IC50, immune complex kinase assay)
# Type: biochemical
# Procedure: Immune Complex Kinase Assays. KL-2 EBV-transformed human lymphoblastoid B cells (native JAK3 kinase assays) or insect ovary cells (recombinant JAK3 kinase assays) were lysed with NP-40 lysis buffer (50 mM Tris, pH 8, 150 mM NaCl, 5 mM EDTA, 1% NP-40, 100 μM sodium orthovanadate, 100 μM sodium molybdate, 8 μg/ml aprotinin, 5 μg/ml leupeptin, and 500 μM PMSF) and centrifuged 10 minutes at 13000×g to remove insoluble material. Samples were immunoprecipitated with antisera prepared against JAK3. […]

{"molecule": "COc1cc2ncnc(Nc3ccc(C)c(Br)c3)c2cc1OC [WHI-P111]", "JAK3 inhibitory activity (in words)": "do not inhibit JAK3"}
{"molecule": "COc1cc2ncnc(Nc3cc(Br)ccc3Br)c2cc1OC [WHI-P112]", "JAK3 inhibitory activity (in words)": "do not inhibit JAK3"}

---

Assignment: determine reported pIC50 for the given molecules.
# targetEntity: human JAK3 (Homo sapiens, UniProt P52333)
# Construct: KL-2 EBV-transformed human lymphoblastoid B cells (native JAK3 kinase assays); endogenous in cells; host or cells: KL-2 EBV-transformed human lymphoblastoid B cell line
# method: Immune complex kinase assay, JAK3 immunoprecipitated from KL2 EBV-transformed lymphoblastoid B cell line
# Format: biochemical
# appliedConditions: JAK3 immunoprecipitated from KL2 cells
# Experimental: KL-2 EBV-transformed human lymphoblastoid B cells (native JAK3 kinase assays) or insect ovary cells (recombinant JAK3 kinase assays) were lysed with NP-40 lysis buffer (50 mM Tris, pH 8, 150 mM NaCl, 5 mM EDTA, 1% NP-40, 100 μM sodium orthovanadate, 100 μM sodium molybdate, 8 μg/ml aprotinin, 5 μg/ml leupeptin, and 500 μM PMSF) and centrifuged 10 minutes at 13000×g to remove insoluble material. Samples were immunoprecipitated with antisera prepared against JAK3. […]
One number for each entry, as −log10 of the molar value.

{"givenSmiles": "COc1cc2ncnc(Nc3cc(Br)c(O)c(Br)c3)c2cc1OC", "pIC50": 4.96}

Kindly consider the entry below.
So what does the record say about pIC50 for `COc1cc2ncnc(Nc3ccc(O)cc3)c2cc1OC` ?
5.04

---

# method: Pharmacokinetic studies in mice
# Type: in vivo
# appliedConditions: i.p., 12.5 mg/kg bolus, read-out: estimated maximum plasma concentration (Cmax)
observationType: Cmax (µM)
Numbers only, in µM.

So what does the record say about Cmax for COc1cc2ncnc(Nc3ccc(O)cc3)c2cc1OC [WHI-P131] ?
57.7

---

Assignment: determine reported IC50 for the given molecules.
# targetEntity: human JAK3 (Homo sapiens)
# Construct: KL-2 EBV-transformed human lymphoblastoid B cells (native JAK3 kinase assays); endogenous in cells; host or cells: KL-2 EBV-transformed human lymphoblastoid B cell line
# Sequence (P52333 1-1124): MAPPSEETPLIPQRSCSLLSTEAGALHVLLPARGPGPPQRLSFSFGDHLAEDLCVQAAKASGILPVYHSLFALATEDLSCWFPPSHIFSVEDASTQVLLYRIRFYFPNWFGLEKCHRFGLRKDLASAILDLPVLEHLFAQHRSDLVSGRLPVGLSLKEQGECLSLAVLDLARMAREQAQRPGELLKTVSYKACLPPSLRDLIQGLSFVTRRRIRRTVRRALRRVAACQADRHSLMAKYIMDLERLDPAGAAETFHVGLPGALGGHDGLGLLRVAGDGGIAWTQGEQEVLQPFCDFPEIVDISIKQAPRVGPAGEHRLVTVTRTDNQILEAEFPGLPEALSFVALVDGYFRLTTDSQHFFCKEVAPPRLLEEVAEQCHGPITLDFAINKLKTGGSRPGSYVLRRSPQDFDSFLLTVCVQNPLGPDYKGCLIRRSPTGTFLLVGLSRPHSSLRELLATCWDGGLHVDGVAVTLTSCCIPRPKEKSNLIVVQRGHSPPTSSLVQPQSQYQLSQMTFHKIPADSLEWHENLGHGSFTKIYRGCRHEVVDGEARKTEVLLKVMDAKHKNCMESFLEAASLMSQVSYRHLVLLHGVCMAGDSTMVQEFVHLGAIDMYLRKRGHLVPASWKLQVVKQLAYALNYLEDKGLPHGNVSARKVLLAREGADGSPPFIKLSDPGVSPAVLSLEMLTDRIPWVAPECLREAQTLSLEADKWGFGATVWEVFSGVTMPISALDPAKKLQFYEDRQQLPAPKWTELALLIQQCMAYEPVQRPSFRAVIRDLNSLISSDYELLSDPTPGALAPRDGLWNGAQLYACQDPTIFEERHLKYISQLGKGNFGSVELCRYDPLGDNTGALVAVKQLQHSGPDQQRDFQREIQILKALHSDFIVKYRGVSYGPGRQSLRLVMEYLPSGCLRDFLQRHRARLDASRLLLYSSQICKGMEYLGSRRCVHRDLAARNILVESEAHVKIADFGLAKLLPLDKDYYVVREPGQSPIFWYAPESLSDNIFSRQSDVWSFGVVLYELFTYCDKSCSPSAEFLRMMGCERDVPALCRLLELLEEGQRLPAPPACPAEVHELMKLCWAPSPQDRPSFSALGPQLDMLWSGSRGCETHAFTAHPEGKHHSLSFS
# method: JAK3 kinase inhibition (Table 1 IC50, immune complex kinase assay)
# Type: biochemical
# appliedConditions: Table 1; measured inhibition values for JAK3 kinase
# Experimental: Immune Complex Kinase Assays. KL-2 EBV-transformed human lymphoblastoid B cells (native JAK3 kinase assays) or insect ovary cells (recombinant JAK3 kinase assays) were lysed with NP-40 lysis buffer (50 mM Tris, pH 8, 150 mM NaCl, 5 mM EDTA, 1% NP-40, 100 μM sodium orthovanadate, 100 μM sodium molybdate, 8 μg/ml aprotinin, 5 μg/ml leupeptin, and 500 μM PMSF) and centrifuged 10 minutes at 13000×g to remove insoluble material. Samples were immunoprecipitated with antisera prepared against JAK3. […]

Hi team, please reply with IC50 for each item in this list.
1. COc1cc2ncnc(Nc3ccc(C)c(Br)c3)c2cc1OC [WHI-P111]
2. COc1cc2ncnc(Nc3ccccc3O)c2cc1OC [WHI-P132]
3. COc1cc2ncnc(Nc3cccc(O)c3)c2cc1OC [WHI-P180]
4. COc1cc2ncnc(Nc3cccc(Br)c3)c2cc1OC [WHI-P79]
5. COc1cc2ncnc(Nc3ccc(O)cc3)c2cc1OC [WHI-P131]

["> 300 µM", "> 300 µM", "3 µM", "> 300 µM", "78 µM"]
